assay: chemical genetic growth profiling, strain panel (AID 1159580);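 note: tested at 20 µM; growth read once vehicle control cultures reached saturation at 30 °C; 1 = growth at the plate median or of vehicle wells; lower values mean less growth of the strain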; settings: S. cerevisiae deletion strains, growth OD, locus YGL248W, strain PDE1, hits give low values
In all, about 5,500 compounds went through this assay and about 2,000 (36%) were called active. Another 18% or so got no clear call; they are omitted. The list shows a part of the results.
MEASURED_PROPERTY: normalized growth
// no unit, no text: just the number

So for CC1(C)CCC[C@@]2(C)C1[C@@H](O)C[C@]1(C)C2CC[C@@H]2[C@@]3(C)CC[C@H](C(C)(C)O)[C@@H]3CC[C@@]21C (some centres not stated) , the logged normalized growth turned out to be 1

So for C[C@@H]1CC(Cl)CC[C@H]1C(=O)OC(C)(C)C (some centres not stated) , the logged normalized growth turned out to be 0.995

So for Clc1ccc(C(OCCN2CCCCC2)c2ccccc2)cc1 (configuration not stated) , the logged normalized growth turned out to be 0.99

So for `CN1CCC(OC(c2ccccc2)c2ccccc2)CC1` , the logged normalized growth turned out to be 0.964

So for `CN1CC(CO)=C[C@@H]2c3cccc4[nH]cc(c34)C[C@H]21` , the logged normalized growth turned out to be 0.988

So for `O=c1cccc2ccc(O)c(O)c2c1O` , the logged normalized growth turned out to be 0.185

So for `COc1ccc(C(=O)CC(=O)O)c2c1C=CC(C)(C)O2` , the logged normalized growth turned out to be 1

So for CCCCCCC(C)OC(=O)COc1cc(Cl)c(Cl)cc1Cl (configuration not stated) , the logged normalized growth turned out to be 0.993

So for CN(C)CCOC(c1ccc(Cl)cc1)c1ccccn1 (configuration not stated) , the logged normalized growth turned out to be 1.04

So for C=C1C2CC[C@@]3(C)[C@H](c4ccoc4)OC(=O)C[C@]13O[C@H]1CC(=O)C(C)(C)[C@H](C(OC(C)=O)C(=O)OC)[C@@]21C (some centres not stated) , the logged normalized growth turned out to be 1.01

So for `C#CCN(C)Cc1ccccc1` , the logged normalized growth turned out to be 1

So for CC[C@@H](C(=O)C(C)[C@@H](O)[C@H](C)CCc1ccc(C)c(O)c1C(=O)O)C1OC(CC)(C2CC[C@](O)(CC)[C@H](C)O2)C[C@@H]1C (some centres not stated) , the logged normalized growth turned out to be 1.02

So for COc1cc2nc(N(C)CCCNC(=O)C3CCCO3)nc(N)c2cc1OC (configuration not stated) , the logged normalized growth turned out to be 1.01

So for `COc1ccc(C(c2ccc(OC)cc2)C(Cl)(Cl)Cl)cc1` , the logged normalized growth turned out to be 0.987

So for COc1ccc(C(CN(C)C)C2(O)CCCCC2)cc1 (configuration not stated) , the logged normalized growth turned out to be 1.01

So for `O=S(=O)(O)CCS` , the logged normalized growth turned out to be 1.03

So for `O=C1NCC2(CCN(CCc3ccccc3)CC2)O1` , the logged normalized growth turned out to be 1.01

So for CCn1cc(C(=O)O)c(=O)c2cc(F)c(N3CCNC(C)C3)c(F)c21 (configuration not stated) , the logged normalized growth turned out to be 1.01

So for `COc1cc2c(cc1OC)C(=O)c1ccc(OC)c(OC)c1OCC(=O)C2` , the logged normalized growth turned out to be 0.994

So for `C[C@H]1COc2c(N3CCN(C)CC3)c(F)cc3c(=O)c(C(=O)O)cn1c23` , the logged normalized growth turned out to be 1

So for CC1CCc2cc(F)cc3c(=O)c(C(=O)O)cn1c23 (configuration not stated) , the logged normalized growth turned out to be 0.984

So for `COc1ccc2c(c1)OC/C(=C/c1ccc(OC)c(OC)c1)C2=O` , the logged normalized growth turned out to be 0.916
